target_or_system: Aβ1–42 peptide (Homo sapiens)
Sequence (P05067 672-713): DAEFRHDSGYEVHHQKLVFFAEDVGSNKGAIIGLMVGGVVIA
test_protocol: Self-mediated Aβ1–42 aggregation assay
Threshold check on IC50: strictly below 9 µM is condition met; on or above 9 µM is condition not met.

Take a look at these entries with their results.
C[C@]12CCC(NC(=S)Nc3ccc(S(N)(=O)=O)cc3)CC1=CC[C@@H]1[C@@H]2CC[C@]2(C)C(C(=O)CNCCc3ccccc3)CC[C@@H]12 (some centres unmarked) [Compound 24] = condition not met
C[C@]12CCC(NC(=S)Nc3ccc(S(N)(=O)=O)cc3)CC1=CC[C@@H]1[C@@H]2CC[C@]2(C)C(C(=O)CNCc3ccccc3)CC[C@@H]12 (some centres unmarked) [Compound 25] = condition not met
C[C@]12CCC(NC(=S)Nc3ccc(S(N)(=O)=O)cc3)CC1=CC[C@@H]1[C@@H]2CC[C@]2(C)C(C(=O)CNc3c4c(cc5ccccc35)CCCC4)CC[C@@H]12 (some centres unmarked) [Compound 28] = condition not met

Next compound, please.
Does C[C@]12CCC(NC(=S)Nc3ccc(S(N)(=O)=O)cc3)CC1=CC[C@@H]1[C@@H]2CC[C@]2(C)C(C(=O)CN3c4ccccc4Sc4ccccc43)CC[C@@H]12 (some centres unmarked) [Compound 27] have IC50 strictly under 9 µM? condition met

###

test_protocol: in vitro
run_conditions: PAMPA
recorded_metric: Papp (×10⁻⁶ cm/s)
One number for each entry, in ×10⁻⁶ cm/s.

CC(=O)C1CC[C@H]2[C@@H]3CC=C4CC(N)CC[C@]4(C)[C@H]3CC[C@]12C (some centres unmarked) [Compound 12] = 19.6

Attention now turns to another entry.
Consider the compound C[C@]12CCC(NC(=S)Nc3ccc(S(N)(=O)=O)cc3)CC1=CC[C@@H]1[C@@H]2CC[C@]2(C)C(C(=O)CN3c4ccccc4Sc4ccccc43)CC[C@@H]12 (some centres unmarked) [Compound 27] and give its measured Papp. 18.1

###

target_or_system: electric eel acetylcholinesterase (eeAChE) (Electrophorus electricus)
Sequence (O42275 24-633): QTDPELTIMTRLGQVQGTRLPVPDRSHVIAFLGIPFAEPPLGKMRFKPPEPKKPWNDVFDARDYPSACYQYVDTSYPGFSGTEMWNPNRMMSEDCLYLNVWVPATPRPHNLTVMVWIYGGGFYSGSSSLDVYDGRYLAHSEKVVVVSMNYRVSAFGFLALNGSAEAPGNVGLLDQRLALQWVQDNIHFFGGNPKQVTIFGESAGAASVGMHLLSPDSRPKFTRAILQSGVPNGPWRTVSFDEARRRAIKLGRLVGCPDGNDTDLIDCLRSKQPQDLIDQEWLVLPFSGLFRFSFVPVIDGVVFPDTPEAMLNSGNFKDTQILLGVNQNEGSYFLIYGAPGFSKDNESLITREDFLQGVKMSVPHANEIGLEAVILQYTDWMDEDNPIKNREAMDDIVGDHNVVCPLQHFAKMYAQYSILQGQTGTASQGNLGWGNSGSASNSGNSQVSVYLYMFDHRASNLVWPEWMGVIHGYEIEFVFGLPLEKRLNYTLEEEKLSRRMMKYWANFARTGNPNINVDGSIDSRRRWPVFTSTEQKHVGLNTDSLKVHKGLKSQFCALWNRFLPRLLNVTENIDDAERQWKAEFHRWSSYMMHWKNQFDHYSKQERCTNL
test_protocol: Acetylcholinesterase inhibition assay
Format: biochemical
run_conditions: Selectivity index = IC50 of BChE/IC50 of AChE
recorded_metric: SI (Selectivity index)
One number for each entry.

Worked examples, 4 molecules total:
CC(=O)C1CC[C@H]2[C@@H]3CC=C4CC(NC(=S)Nc5ccc(S(N)(=O)=O)cc5)CC[C@]4(C)[C@H]3CC[C@]12C (some centres unmarked) = 4.8
C[C@]12CCC(NC(=S)Nc3ccc(S(N)(=O)=O)cc3)CC1=CC[C@@H]1[C@@H]2CC[C@]2(C)C(C(=O)CNc3c4c(cc5ccccc35)CCCC4)CC[C@@H]12 (some centres unmarked) = 42.2
C[C@]12CCC(NC(=S)Nc3ccc(S(N)(=O)=O)cc3)CC1=CC[C@@H]1[C@@H]2CC[C@]2(C)C(C(=O)CNCc3ccccc3)CC[C@@H]12 (some centres unmarked) = 11.5
C[C@]12CCC(NC(=S)Nc3ccc(S(N)(=O)=O)cc3)CC1=CC[C@@H]1[C@@H]2CC[C@]2(C)C(C(=O)CN3c4ccccc4Sc4ccccc43)CC[C@@H]12 (some centres unmarked) = 166.7

Okay, next one:
Report SI (Selectivity index) for C[C@]12CCC(NC(=S)Nc3ccc(S(N)(=O)=O)cc3)CC1=CC[C@@H]1[C@@H]2CC[C@]2(C)C(C(=O)CNCCc3ccccc3)CC[C@@H]12 (some centres unmarked) please. 8.0
